- STUDY SYSTEM: T1, human neonatal Fc receptor (hFcRn) (human, UniProt P55899 24-290; P61769 21-119)
- T1 construct: Biotinylated in the ELISA, Octet and yeast assays; also called human FcRn; huFcRn
- T1 sequence (P55899 24-290 limits assumed, chain 1 of 2): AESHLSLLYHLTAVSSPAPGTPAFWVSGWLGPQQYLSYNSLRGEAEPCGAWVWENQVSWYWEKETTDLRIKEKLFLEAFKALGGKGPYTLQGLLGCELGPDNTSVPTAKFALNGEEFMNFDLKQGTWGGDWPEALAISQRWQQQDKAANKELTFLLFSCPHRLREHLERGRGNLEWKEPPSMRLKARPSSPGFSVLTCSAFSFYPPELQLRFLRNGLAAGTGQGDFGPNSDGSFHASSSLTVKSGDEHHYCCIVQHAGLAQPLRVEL
- T1 sequence (P61769 21-119 limits assumed, chain 2 of 2): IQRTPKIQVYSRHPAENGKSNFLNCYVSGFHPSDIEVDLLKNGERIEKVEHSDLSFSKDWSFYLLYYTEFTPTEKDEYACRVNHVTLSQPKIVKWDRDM
- EXPERIMENTAL PROTOCOL: phage ELISA pH 6;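 also: higher score means stronger binding and above about 3 to 5 exceeds background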
# key: entry, value: ELISA score
I'd appreciate a reply containing only the number, no unit.

Below, each entry is followed by its recorded ELISA score result.
L5 isolate with insertion SEQ ID NO: 481 (other) EPKSCDKTHTCPPCPAPELLGGPSVFLFPPKPKDTLMISRTPEVTCVVVDVSHEDPEVKFNWYVDGVEVHNAKTKPREEQYNSTYRVVSVLTVLHQDWLNGKEYKCKVSNKALPAPIEKTISKAKGQPREPQVYTLPPSRDELTKNQVSLTCLVKGFYPSDIAVEWESNGGCEQQFVTCGGGQPENNYKTTPPVLDSDGSFFLYSKLTVDKSRWQQGNVFSCSVMHEALHNHYTQKSLSLSPGK : 31.1
L5 isolate with insertion SEQ ID NO: 483 (other) EPKSCDKTHTCPPCPAPELLGGPSVFLFPPKPKDTLMISRTPEVTCVVVDVSHEDPEVKFNWYVDGVEVHNAKTKPREEQYNSTYRVVSVLTVLHQDWLNGKEYKCKVSNKALPAPIEKTISKAKGQPREPQVYTLPPSRDELTKNQVSLTCLVKGFYPSDIAVEWESNGGCPQHGEMCGGGQPENNYKTTPPVLDSDGSFFLYSKLTVDKSRWQQGNVFSCSVMHEALHNHYTQKSLSLSPGK : 28.4
L5 isolate with insertion SEQ ID NO: 405 (other) EPKSCDKTHTCPPCPAPELLGGPSVFLFPPKPKDTLMISRTPEVTCVVVDVSHEDPEVKFNWYVDGVEVHNAKTKPREEQYNSTYRVVSVLTVLHQDWLNGKEYKCKVSNKALPAPIEKTISKAKGQPREPQVYTLPPSRDELTKNQVSLTCLVKGFYPSDIAVEWESNGGCQHHIMQCGGGQPENNYKTTPPVLDSDGSFFLYSKLTVDKSRWQQGNVFSCSVMHEALHNHYTQKSLSLSPGK : 73.4

Query :: So what's the measured ELISA score for this one? L5 isolate with insertion SEQ ID NO: 421 (other) EPKSCDKTHTCPPCPAPELLGGPSVFLFPPKPKDTLMISRTPEVTCVVVDVSHEDPEVKFNWYVDGVEVHNAKTKPREEQYNSTYRVVSVLTVLHQDWLNGKEYKCKVSNKALPAPIEKTISKAKGQPREPQVYTLPPSRDELTKNQVSLTCLVKGFYPSDIAVEWESNGGCNPHRTPCGGGQPENNYKTTPPVLDSDGSFFLYSKLTVDKSRWQQGNVFSCSVMHEALHNHYTQKSLSLSPGK
Result :: 60.9

Query :: So what's the measured ELISA score for this one? L6B isolate with insertion SEQ ID NO: 471 (other) EPKSCDKTHTCPPCPAPELLGGPSVFLFPPKPKDTLMISRTPEVTCVVVDVSHEDPEVKFNWYVDGVEVHNAKTKPREEQYNSTYRVVSVLTVLHQDWLNGKEYKCKVSNKALPAPIEKTISKAKGQPREPQVYTLPPSRDELGGCLRNFMKQSCGGTKNQVSLTCLVKGFYPSDIAVEWESNGQPENNYKTTPPVLDSDGSFFLYSKLTVDKSRWQQGNVFSCSVMHEALHNHYTQKSLSLSPGK
Result :: 42.3
